- MEASUREMENT_TARGET: Lin28 (Homo sapiens)
- Construct: gene LIN28A; recombinant, N-terminal GST tag; multimeric on pre-let-7
- Sequence (Q9H9Z2 1-209): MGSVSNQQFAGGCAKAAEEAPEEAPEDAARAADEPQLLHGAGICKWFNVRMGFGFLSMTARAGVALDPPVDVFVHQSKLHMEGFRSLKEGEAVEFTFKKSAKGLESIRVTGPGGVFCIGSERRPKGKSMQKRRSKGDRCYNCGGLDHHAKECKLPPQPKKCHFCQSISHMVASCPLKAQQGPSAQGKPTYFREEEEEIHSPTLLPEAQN
- ASSAY_SUMMARY: fluorescence polarization displacement of fluorescein-labelled tpre-let-7g RNA
- Assay type: binding
- TEST_CONDITIONS: read-out: IC50
PARAMETER_MEASURED: IC50 (µM)
Answers are plain numbers, in µM.

Please state IC50 for every compound in the list that follows.
1. O=C(O)c1ccc2nc3c4c(O)ccc(O)c4c(=O)c(Cl)c-3oc2c1
2. O=C(O)C1=CC(=C(c2ccc(O)c(C(=O)O)c2)c2ccc(O)c(C(=O)O)c2)C=CC1=O
3. Nc1c(S(=O)(=O)O)cc(Nc2ccc(S(=O)(=O)O)c(Nc3nc(Cl)nc(Cl)n3)c2)c2c1C(=O)c1ccccc1C2=O [11b, Reactive Blue 4]

1. 4.71
2. 1.18
3. 10.8

* * *

- MEASUREMENT_TARGET: Lin28 (Homo sapiens, UniProt Q9H9Z2)
- Construct: gene LIN28A; recombinant, N-terminal GST tag; multimeric on pre-let-7
- ASSAY_SUMMARY: fluorescence polarization displacement of fluorescein-labelled tpre-let-7g RNA
- Format: binding
PARAMETER_MEASURED: pIC50
Answers are plain numbers, as −log10 of the molar value.

Could you share which pIC50 value was measured for NC(Cc1cc(O)c(O)cc1O)C(=O)O (racemic) [compound 10, 6-hydroxy-DL-DOPA] ?
5.15
